Data credit: patent US12122785B2

# Assayed System: TYK2 kinase domain (JH1) (Homo sapiens, UniProt P29597)
# Construct: recombinant purified His or GST-tagged catalytic domain for each enzyme
# Sequence (P29597 897-1176 limits assumed): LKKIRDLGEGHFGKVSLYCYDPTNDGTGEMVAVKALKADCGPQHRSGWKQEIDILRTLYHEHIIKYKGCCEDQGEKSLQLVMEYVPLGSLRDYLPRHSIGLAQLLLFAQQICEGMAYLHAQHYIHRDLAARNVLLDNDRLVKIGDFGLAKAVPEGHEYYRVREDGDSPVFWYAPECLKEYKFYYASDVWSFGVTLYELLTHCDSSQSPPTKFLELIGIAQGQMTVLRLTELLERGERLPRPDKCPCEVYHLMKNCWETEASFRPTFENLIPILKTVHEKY
# Assay Text: HTRF-based selectivity assay, TYK2 catalytic domain
# Measurement Conditions: 20 μM ATP
pIC50: −log10 of the molar value.
Reported pIC50 values follow for various molecules

Example entries begin here.
Ask: Can you look up the measured pIC50 of [2H]C([2H])([2H])NC(=O)c1cnc(NC(=O)C2(O)CC2)cc1Nc1cccc2c1N(C)Cc1cn(C)nc1-2 for me?
Result: < 6.00

Ask: // returns reported pIC50 for input [2H]C([2H])([2H])NC(=O)c1cnc(NC(=O)C2CC2)cc1Nc1cccc2c1N(C)[C@@H](C)c1cn(C)nc1-2 (single isomer, unassigned)
Result: < 6.00

Next molecule, please.
Ask: May I ask what pIC50 has been recorded for [2H]C([2H])([2H])NC(=O)c1cnc(NC(=O)C2CC2)cc1Nc1cccc2c1N(C)C([2H])([2H])c1cn(C)nc1-2 ?
Result: < 6.00
